# Tested on: Staphylococcus aureus
# ASSAY_OVERVIEW: In vitro minimum inhibitory concentration for Staphylococcus aureus ATCC 25178
# Format: functional
VALUE_KIND: MIC (µg/mL)

See these solved cases before continuing.
Find the recorded MIC belonging to `C[C@H]1[C@H](N)CN1c1nc2c(cc1F)c(=O)c(C(=O)O)cn2C(C)(C)C` and report it.
0.12

Find the recorded MIC belonging to `C[C@H]1[C@H](N)CN1c1c(F)cc2c(=O)c(C(=O)O)cn(C(C)(C)C)c2c1F` and report it.
0.25

Find the recorded MIC belonging to `C[C@H]1[C@H](N)CN1c1nc2c(cc1F)c(=O)c(C(=O)O)cn2C1CC1` and report it.
0.12

Find the recorded MIC belonging to `C[C@H]1[C@H](N)CN1c1c(F)cc2c(=O)c(C(=O)O)cn(CCF)c2c1F` and report it.
0.5

(P) C[C@H]1[C@@H](N)CN1c1c(F)cc2c(=O)c(C(=O)O)cn(C3CC3)c2c1F
(Q) C[C@H]1[C@@H](O)CN1c1cc2c(cc1F)c(=O)c(C(=O)O)cn2C1CC1
Form field 'greater MIC' accepts P or Q ; which applies? // caller expects the label of the chosen entry
Q
(Q: 0.25 µg/mL, P: 0.012 µg/mL)

(I) C[C@H]1[C@H](N)CN1c1nc2c(cc1F)c(=O)c(C(=O)O)cn2-c1ccc(F)cc1F
(II) C[C@@H]1[C@@H](CN)CN1c1cc2c(cc1F)c(=O)c(C(=O)O)cn2C1CC1
Between I and II , which one shows the smaller MIC number? // caller expects the label of the chosen entry
I

----------
# ASSAY_OVERVIEW: HPLC capacity factor (k')
# Type: ADME
VALUE_KIND: Log k'

See these solved cases before continuing.
Find the recorded Log k' belonging to `CCC1(O)CN(c2c(F)cc3c(=O)c(C(=O)O)cn(C4CC4)c3c2F)C1` and report it.
0.7591

Find the recorded Log k' belonging to `CCn1cc(C(=O)O)c(=O)c2c(N)c(F)c(N3CC(N)C3)c(F)c21` and report it.
-0.1033

Find the recorded Log k' belonging to `CNC1CN(c2c(F)cc3c(=O)c(C(=O)O)cn(-c4ccc(F)cc4F)c3c2Cl)C1` and report it.
0.25

(A) CNC1(C)CN(c2nc3c(cc2F)c(=O)c(C(=O)O)cn3C2CC2)C1
(B) NC1CN(c2nc3c(cc2F)c(=O)c(C(=O)O)cn3-c2ccc(F)cc2F)C1
Form field 'greater Log k'' accepts A or B ; which applies? // caller expects the label of the chosen entry
A

(P) CC1(O)CN(c2c(F)cc3c(=O)c(C(=O)O)cn(C4CC4)c3c2F)C1
(Q) Nc1c(F)c(N2CC(O)C2)c(F)c2c1c(=O)c(C(=O)O)cn2C1CC1
(R) CC1(N)CN(c2nc3c(cc2F)c(=O)c(C(=O)O)cn3-c2ccc(F)cc2)C1
Endpoint returns the given compounds ordered by ascending Log k'. Give me the labels in the order the question wants.
R, Q, P
(R: -0.0388, Q: 0.3487, P: 0.5451)

(A) CCC1(O)CN(c2cc3c(cc2F)c(=O)c(C(=O)O)cn3C2CC2)C1
(B) C[C@H]1[C@@H](O)CN1c1cc2c(cc1F)c(=O)c(C(=O)O)cn2C1CC1
(C) CCNCC1(C)CN(c2cc3c(cc2F)c(=O)c(C(=O)O)cn3C2CC2)C1
Endpoint returns the given compounds ordered by ascending Log k'. Give me the labels in the order the question wants.
C, B, A

Cited source: ChEMBL document CHEMBL1127424
